# TEST: Oral bioavailability in Beagle dog
# Assay type: ADME, organism-based, Canis lupus familiaris
# TEST_SETTINGS: in vivo
VALUE_TYPE: bioavailability (%)

The cases that follow already have their bioavailability on record.
- COMPOUND: "CCn1c(-c2cnc(C)nc2)nc2c(O[C@H]3CCN(C(=O)C4CC4)C3)ncnc21"
  UOM: "%"
  bioavailability: 100
- COMPOUND: "CCn1c(-c2ccc(C(F)(F)F)nc2)nc2c(O[C@H]3CCN(C(=O)C4CCOC4)C3)ncnc21 (stereo partly specified)"
  UOM: "%"
  bioavailability: 100
- COMPOUND: "CCn1c(-c2ccc(C(F)(F)F)nc2)nc2c(O[C@H]3CCN(C(=O)N4CC(OC)C4)C3)ncnc21"
  UOM: "%"
  bioavailability: 100
- COMPOUND: "CCn1c(-c2ccc(C(F)(F)F)nc2)nc2c(O[C@H]3CCN(C(=O)c4cocn4)C3)ncnc21"
  UOM: "%"
  bioavailability: 100
- COMPOUND: "CCn1c(-c2cnc(C)nc2)nc2c(N[C@H]3CCN(C(=O)C4CC4)C3)ncnc21"
  UOM: "%"
  bioavailability: 95
- COMPOUND: "CCn1c(-c2cnc(C)nc2)nc2c(O[C@H]3CCN(C(=O)c4cocn4)C3)ncnc21"
  UOM: "%"
  bioavailability: 100
- COMPOUND: "CCn1c(-c2cnc(C)nc2)nc2c(N[C@H]3CCN(C(=O)C4CCC4)C3)ncnc21"
  UOM: "%"
  bioavailability: 84
- COMPOUND: "CCn1c(-c2cnc(C)nc2)nc2c(O[C@H]3CCN(C(=O)[C@H]4C[C@@H](OC)C4)C3)ncnc21"
  UOM: "%"
  bioavailability: 80
- COMPOUND: "CCn1c(-c2cnc(C)nc2)nc2c(N[C@H]3CCN(C(=O)[C@H]4C[C@@H](OC)C4)C3)ncnc21"
  UOM: "%"
  bioavailability: 85

P: CCn1c(-c2ccc(C(F)(F)F)nc2)nc2c(O[C@H]3CCN(C(=O)[C@H]4C[C@@H](OC)C4)C3)ncnc21
Q: CCn1c(-c2cnc(C)nc2)nc2c(N[C@H]3CCN(C(=O)N4CC(OC)C4)C3)ncnc21
Select the item whose bioavailability value is smaller, choosing between P and Q . Your answer should be the label of the entry you select.
Q
(Q: 69%, P: 100%)
